- Test system: U251 CNS
Log the outcome using a class from 1 (active), 0 (inactive)

Solved entries (count: 3):
| compound | experimental.system | group |
| --- | --- | --- |
| OCC1OC(N2C=C(c3nc4ccccc4s3)C3C=CC=CC32)C(O)C(O)C1O (stereo unspecified) | U251 CNS | 0 |
| COc1ccc(C2c3ccc4ccccc4c3Oc3ncn(CCCn4ccnc4)c(=N)c32)cc1OC (stereo unspecified) | U251 CNS | 0 |
| CCn1nc(C2CCN(C(=O)CCO)CC2)nc1-c1cnc(N)c(-c2nnc(C(C)(C)C)o2)n1 | U251 CNS | 0 |

For `CC(C)(C)c1cc(C[P+](c2ccccc2)(c2ccccc2)c2ccccc2)cc(C(C)(C)C)c1O` , what call appears in the results of this test?
1

Record request — test call for `CCCCN(CCCC)P(=O)(Oc1ccccc1)Oc1ccccc1`
0

Look up the recorded call for `COc1cc2c3c(n(CCCN=[N+]=[N-])c(=O)c2cc1OC)-c1ccc([N+](=O)[O-])cc1C3=O` in this test.
0

* * *

Listing of recorded TGI by entry.
- System: HOP-92 NSCLC
- assay.explanation: NCI tumour cell line growth inhibition, 48 h

Guide cases for TGI, answers given:
| molecule | experimental.system | reading |
| --- | --- | --- |
| CCCCCCCCCCCCc1ccc(S(=O)(=O)O)cc1.[Cu+2] | HOP-92 NSCLC | > 100 µM |
| COC(=O)/C=C1\CCC2[C@@H](C(=O)CC3[C@]2(C)CCC[C@@]3(C)C(=O)OC)C1C (stereo not given in full) | HOP-92 NSCLC | 50.6 µM |
| COc1cccc(S(=O)(=O)NC2=NCCN2C(=S)SN2CCn3c2nsc3=S)c1 | HOP-92 NSCLC | > 100 µM |
| COc1c(Sc2c(SCSc3cnc4ccccc4c3Sc3cnc4ccccc4c3OC)cnc3ccccc23)cnc2ccccc12 | HOP-92 NSCLC | 84 µM |
| C[C@@H]1CC[C@@]2(C)OC(c3ccccc3)[C@H](CO)N2C1=O (stereo not given in full) | HOP-92 NSCLC | > 100 µM |

Please list TGI recorded for the molecule `CSc1nc(-c2ccccc2)[nH]c(=O)n1`
> 100 µM

Assign TGI to the following record: `O=C(CSCC(=O)N/N=C\c1ccc(F)cc1F)N/N=C\c1ccc(F)cc1F`
> 100 µM

Name the recorded TGI of the molecule listed here: Cc1ccc(NC(=O)C2C3C=CC(O3)C2C(=O)O)cc1 (stereo not given)
> 100 µM

Recall and state the measured TGI for Nc1nc(Sc2ccc([N+](=O)[O-])c3nonc23)c2ncn(C3OC(CO)C(O)C3O)c2n1 (stereo not given) .
18.1 µM

Consider the molecule CC1(O)CC2C(CC1SC1CC3C(CC1(C)O)C3(C)C)C2(C)C (stereo not given) . State its measured TGI.
> 100 µM

* * *

Listing of recorded TGI by entry.
- Tested on: SF-295 CNS
- assay.explanation: NCI tumour cell line growth inhibition, 48 h

The examples below pair each entry with its known result.
| molecule | experimental.system | TGI |
| --- | --- | --- |
| COc1cc(-n2cc(-c3ccc(Cl)cc3)n(-c3ccccc3)c2=O)cc(OC)c1OC | SF-295 CNS | > 100 µM |
| O=C1NC(=O)C(CCC(=O)c2cccc3ccccc23)C(=O)N1 | SF-295 CNS | > 100 µM |
| CCc1cccc(C(C)C)c1NC(=O)/C(=N\NC(N)=O)C(C(=O)OC)c1cnc2ccccc2n1 (stereo unspecified) | SF-295 CNS | > 100 µM |
| CCOC(=O)c1cc(=O)c2cccc3c2n1CCS3 | SF-295 CNS | > 100 µM |
| COC(=O)C1(Cc2ccccc2)Cc2ccccc2C1O (stereo unspecified) | SF-295 CNS | > 100 µM |
| CC(=O)OC(C(=O)O)C(OC(C)=O)C(OC(C)=O)C(OC(C)=O)C(=O)O (stereo unspecified) | SF-295 CNS | > 100 µM |

For `O=S(O)O.O=S(O)O.[Co].[NH2-].[NH2-].[NH2-].[NH2-]` , write its TGI.
> 100 µM

Determine its reported TGI: `Cn1cnc([N+](=O)[O-])c1Sc1n[nH]c(-c2ccc(Cl)cc2)n1`
58.8 µM

Please supply the value of reported TGI for the item `CCOC(=O)C(=[N+]=[N-])C(=O)CSC#N`
> 100 µM

Note down TGI recorded for `N#CC1(CCCI)CCCC1`
94.7 µM

Tell us which TGI value is on record for `FC(F)(F)c1ccc2c(-c3cc[nH]c3)ccnc2c1`
84.1 µM

* * *

- Tested on: ACHN renal
- assay.explanation: NCI tumour cell line growth inhibition, 48 h
assay.metric: TGI

| compound | reading |
| --- | --- |
| NCCCN(CCCCN(CCCN)Cc1ccccc1)Cc1ccccc1 | > 100 µM |
| Cn1cc(NC(=O)Nc2cc(C(=O)Nc3cc(C(=O)Nc4ccc5cc(S(=O)(=O)O)cc(S(=O)(=O)O)c5c4)n(C)c3)n(C)c2)cc1C(=O)Nc1cc(C(=O)Nc2ccc3cc(S(=O)(=O)O)cc(S(=O)(=O)O)c3c2)n(C)c1 | > 100 µM |
| CC(=O)NC(CCCCNCc1ccccc1)C(=O)NCc1ccccc1 (stereo not given) | > 100 µM |
| Cc1n[nH]c(=O)n1C1CC1 | > 100 µM |

Please find the next compound below.
Please tell me the measured TGI for `Cc1[nH]c2ccccc2c1CO` ; system: ACHN renal.
88.8 µM

* * *

The entries below are paired with their reported TGI.
- Test system: TK-10 renal
- assay.explanation: NCI tumour cell line growth inhibition, 48 h

Worked set:
| molecule | experimental.system | TGI |
| --- | --- | --- |
| N#CC(O)CCOCc1ccccc1 (centres undefined) | TK-10 renal | > 100 µM |
| CC(C)CCN(CCC(C)C)CC(=O)Nc1ccc(S(=O)(=O)c2ccc(NC(=O)CN(CCC(C)C)CCC(C)C)cc2)cc1 | TK-10 renal | 25.5 µM |
| CCc1cccc(C(C)C)c1NC(=O)/C(=N\NC(N)=O)C(C(=O)OC)c1cnc2ccccc2n1 (centres undefined) | TK-10 renal | > 100 µM |
| COc1c(Sc2c(SCSc3cnc4ccccc4c3Sc3cnc4ccccc4c3OC)cnc3ccccc23)cnc2ccccc12 | TK-10 renal | > 100 µM |
| CC(C)CC(=O)CC(C)[C@]1(CCCOCc2ccccc2)C(=O)N2CCC3(C[C@@]24CCC[C@H]41)OCCO3 (some centres undefined) | TK-10 renal | > 10 µM |
| O=C1N[C@H]2C(=O)c3c(Br)sc(Br)c3[C@H]2O1 | TK-10 renal | 41 µM |
| COc1cc(-n2cc(-c3ccc(Cl)cc3)n(-c3ccccc3)c2=O)cc(OC)c1OC | TK-10 renal | > 100 µM |
| COc1ccc(C2(Cl)C(Cl)(C(F)(F)F)C2(Cl)C(F)(F)F)cc1 (centres undefined) | TK-10 renal | 32 µM |
| COc1ccc(/C=C/c2onc3c(=O)n(C)nc(-c4ccccc4)c23)cc1 | TK-10 renal | > 100 µM |
| NC(=O)c1ncn(C2C=CC(CP(=O)(O)O)C2)c1N (centres undefined) | TK-10 renal | > 100 µM |

In one line, give reported TGI of the entry COC(=O)CN(CC(=O)NCCNC(=O)OC(C)(C)C)C1CCCCC1N(CC(=O)OC)CC(=O)OC (centres undefined) .
> 100 µM

Supply recorded TGI for `CC(=O)NC1=NC(=O)/C(=C/c2ccccc2Cl)N1C` here.
> 100 µM

Check the records and state TGI for Nc1nc(Sc2ccc([N+](=O)[O-])c3nonc23)c2ncn(C3OC(CO)C(O)C3O)c2n1 (centres undefined)
> 37.2 µM

State its TGI: COc1cccc(/C=C2\CCC(CN(C)C)C2=O)c1 (centres undefined)
24.3 µM

Entry `O/N=C1/CCCC/C1=C\c1ccc(Cl)c(Cl)c1` needs its TGI filled in; supply it.
> 100 µM

Return the recorded TGI value; entry: `C[n+]1c2ccccc2c(N=[N+]=[N-])c2ccccc21`
> 10 µM

Give TGI for `Cn1cc(NC(=O)Nc2cc(C(=O)Nc3cc(C(=O)Nc4ccc5cc(S(=O)(=O)O)cc(S(=O)(=O)O)c5c4)n(C)c3)n(C)c2)cc1C(=O)Nc1cc(C(=O)Nc2ccc3cc(S(=O)(=O)O)cc(S(=O)(=O)O)c3c2)n(C)c1`
> 100 µM

In one line, give reported TGI of the entry CC[C@@]1(O)CC(OC2CC(N3CCOCC3)C(O)C(C)O2)c2c(O)c3c(c(O)c2[C@H]1O)C(=O)c1cccc(O)c1C3=O (some centres undefined) .
1.7 µM

Look up and state reported TGI for `COc1cccc([C@@H]2C/C(=N\NC(=O)C(=O)N[C@@H](C)c3ccccc3)c3ccccc3N2)c1`
> 100 µM
